This collection of values is drawn from patent US12448369B2.

target: Porcine ventricle myofibrils (ventricular myosin ATPase) (Sus scrofa, UniProt P79293); construct: Myofibrils from porcine cardiac muscle was isolated from the left ventricle of Yucatan minipigs; tissue Exemplar Genetics; host or cells: left ventricle of Yucatan minipigs, myofibrils prepared in house; test: Myofibril ATPase assay, porcine ventricle myofibrils; format: biochemical, porcine (Yucatan minipigs); conditions: porcine ventricle myofibrils; Y75 value
Sequence (P79293 whole entry): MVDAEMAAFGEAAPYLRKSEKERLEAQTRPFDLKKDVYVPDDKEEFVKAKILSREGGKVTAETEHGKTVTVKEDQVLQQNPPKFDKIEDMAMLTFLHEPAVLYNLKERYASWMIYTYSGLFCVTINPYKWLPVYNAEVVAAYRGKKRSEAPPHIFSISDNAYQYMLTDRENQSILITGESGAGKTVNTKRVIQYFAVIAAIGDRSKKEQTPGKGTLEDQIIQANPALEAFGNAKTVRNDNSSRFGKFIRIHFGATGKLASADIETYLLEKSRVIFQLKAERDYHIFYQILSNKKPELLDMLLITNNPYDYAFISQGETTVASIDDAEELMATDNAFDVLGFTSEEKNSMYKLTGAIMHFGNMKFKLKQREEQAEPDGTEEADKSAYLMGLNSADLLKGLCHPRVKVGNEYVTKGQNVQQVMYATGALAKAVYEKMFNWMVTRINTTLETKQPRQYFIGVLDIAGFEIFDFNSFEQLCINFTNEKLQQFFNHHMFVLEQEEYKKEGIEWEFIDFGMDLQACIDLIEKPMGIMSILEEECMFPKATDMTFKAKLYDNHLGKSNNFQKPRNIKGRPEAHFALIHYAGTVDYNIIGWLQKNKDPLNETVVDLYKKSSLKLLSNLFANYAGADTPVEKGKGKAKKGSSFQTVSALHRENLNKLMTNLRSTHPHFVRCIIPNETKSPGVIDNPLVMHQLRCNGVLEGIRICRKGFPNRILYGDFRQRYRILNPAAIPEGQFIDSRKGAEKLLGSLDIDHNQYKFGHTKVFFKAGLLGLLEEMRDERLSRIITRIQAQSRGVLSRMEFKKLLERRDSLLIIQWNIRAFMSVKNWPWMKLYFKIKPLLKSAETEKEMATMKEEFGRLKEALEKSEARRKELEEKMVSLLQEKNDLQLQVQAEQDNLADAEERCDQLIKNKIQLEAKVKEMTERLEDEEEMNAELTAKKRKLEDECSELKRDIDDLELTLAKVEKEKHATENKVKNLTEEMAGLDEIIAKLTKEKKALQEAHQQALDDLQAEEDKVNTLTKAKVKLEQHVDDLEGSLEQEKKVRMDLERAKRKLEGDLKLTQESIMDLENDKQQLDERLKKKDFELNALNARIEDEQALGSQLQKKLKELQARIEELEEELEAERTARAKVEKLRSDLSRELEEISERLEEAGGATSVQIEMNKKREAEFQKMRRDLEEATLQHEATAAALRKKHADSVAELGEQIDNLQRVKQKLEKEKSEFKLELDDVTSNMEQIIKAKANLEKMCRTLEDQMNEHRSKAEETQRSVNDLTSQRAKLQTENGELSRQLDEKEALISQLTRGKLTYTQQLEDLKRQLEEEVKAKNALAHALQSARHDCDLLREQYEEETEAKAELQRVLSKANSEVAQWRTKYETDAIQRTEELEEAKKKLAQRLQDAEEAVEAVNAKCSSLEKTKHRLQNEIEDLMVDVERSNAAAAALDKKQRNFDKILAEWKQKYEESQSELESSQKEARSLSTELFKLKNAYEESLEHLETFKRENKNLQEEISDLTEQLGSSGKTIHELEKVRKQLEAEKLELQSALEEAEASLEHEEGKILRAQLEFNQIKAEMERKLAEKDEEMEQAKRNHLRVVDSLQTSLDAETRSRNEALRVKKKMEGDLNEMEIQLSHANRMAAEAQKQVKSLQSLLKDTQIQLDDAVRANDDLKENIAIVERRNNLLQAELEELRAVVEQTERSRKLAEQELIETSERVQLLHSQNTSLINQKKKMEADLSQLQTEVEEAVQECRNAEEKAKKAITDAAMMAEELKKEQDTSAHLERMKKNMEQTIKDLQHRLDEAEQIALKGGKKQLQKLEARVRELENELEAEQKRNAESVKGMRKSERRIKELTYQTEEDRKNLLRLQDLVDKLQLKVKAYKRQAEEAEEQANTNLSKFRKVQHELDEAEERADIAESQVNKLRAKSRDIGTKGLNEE
reported.endpoint: Ventricular EC25 (µM)
All answers are understood in µM, so give the number only.

compound	value.measured
Cc1ccc2[nH]c(=O)c(CC(=O)N[C@H](C)c3ncc(C#N)cc3F)cc2n1 [compound 462]	100.00
Cc1cc2[nH]c(=O)c(CC(=O)N[C@@H](C)c3ccc(F)cc3F)c(C)c2cn1 [compound 446]	100.00
Cc1nccc2[nH]c(=O)c(C3(C(=O)N[C@H](C)c4ccc(C#N)cc4F)CC3)c(C)c12 (single isomer, unassigned) [compound 3516]	1.49
Cc1c(CC(=O)N[C@H](CO)c2ccc(F)cc2F)c(=O)[nH]c2ccnc(C#N)c12 [compound 229]	34.95
Cc1nccc2[nH]c(=O)c([C@@H](C)C(=O)N[C@H](C)c3ccc(C#N)cc3F)c(C)c12 (single isomer, unassigned) [compound 183]	6.37
Cc1c(CC(=O)N[C@H](CO)c2ccc(C#N)cc2F)c(=O)[nH]c2ccnc(C#N)c12 (single isomer, unassigned) [compound 241]	4.21
C[C@H](NC(=O)Cc1cc2c(O)nccc2[nH]c1=O)c1ccc(F)cc1F [compound 3013]	100.00
Cc1c(CC(=O)N[C@@H](C)c2ccc(F)cc2F)c(=O)[nH]c2ccc(OCC(F)(F)F)nc12 [compound 400]	100.00

## Input Please tell me: Ventricular EC25 of Cc1nccc2[nH]c(=O)c(CC(=O)N[C@H](CO)c3ncc(F)cc3F)c(C)c12 (single isomer, unassigned) [compound 303] , system Porcine ventricle myofibrils (ventricular myosin ATPase) (Sus scrofa, UniProt P79293)?
## Output 100.00

## Input Find the measured Ventricular EC25: item Cc1c(CC(=O)N[C@@H](C)c2ccc(F)cc2F)c(=O)[nH]c2ccnc(OC3CC3)c12 [compound 386] , target or system Porcine ventricle myofibrils (ventricular myosin ATPase) (Sus scrofa, UniProt P79293).
## Output 1.51

## Input Form field - read-out: Ventricular EC25; system: Porcine ventricle myofibrils (ventricular myosin ATPase) (Sus scrofa, UniProt P79293); submitted item: C[C@H](NC(=O)Cc1cc2cnccc2[nH]c1=O)c1ccc(F)cc1F [compound 441]
## Output 100.00

## Input Which Ventricular EC25 is reported with Porcine ventricle myofibrils (ventricular myosin ATPase) (Sus scrofa, UniProt P79293) for this entry: Cc1c(CC(=O)N[C@@H](CO)c2ncc(F)cc2F)c(=O)[nH]c2ccc(C#N)nc12 [compound 260] ?
## Output 100.00

## Input Look up Ventricular EC25 with Porcine ventricle myofibrils (ventricular myosin ATPase) (Sus scrofa, UniProt P79293) for this compound: C[C@H](NC(=O)[C@@H](C)c1cc2c(C#N)nccc2[nH]c1=O)c1ccc(F)cc1F (single isomer, unassigned) [compound 361]
## Output 3.68

## Input Param readout = Ventricular EC25; param system = Porcine ventricle myofibrils (ventricular myosin ATPase) (Sus scrofa, UniProt P79293); param query = Cc1c(CC(=O)N[C@@H](CO)c2ncc(F)cc2F)c(=O)[nH]c2ccnc(C#N)c12 [compound 262] ; response: value
## Output 0.67
